The reader will find reported hERG current change (%, negative = inhibition) at 10uM values listed item by item below.
target: human ether-à-go-go-related gene (hERG) potassium channel (human); test: primary screen, population patch clamp on CHO cells stably expressing hERG; higher = less effect of the substance;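 further: peak tail current of the secondary pulse compared with the same well before compound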
Hit rate of the full screen: of about 310,000 compounds, about 14,000 (4.5%) showed an effect of 50% or more. The effect is printed as a negative number. For the sample, strong results were picked, then their nearest neighbours and some compounds at random.
measurement-type: hERG current change (%, negative = inhibition) at 10uM (%)

- molecule: "CC(C)C(=O)N1N=C(c2ccc(NS(C)(=O)=O)cc2)CC1c1cccs1 (stereo not drawn)"
  unit-abbreviation: "%"
  measured: -68.7
- molecule: "O=C(COc1ccccc1[N+](=O)[O-])N(Cc1cccc(Br)c1)C1CCS(=O)(=O)C1 (stereo not drawn)"
  unit-abbreviation: "%"
  measured: -57.8
- molecule: "O=C(NCCN1CCOCC1)c1csc2c1CCCCC2"
  unit-abbreviation: "%"
  measured: 5.21
- molecule: "CC(C)(C)c1nnc(NS(=O)(=O)c2ccc([N+](=O)[O-])cc2)s1"
  unit-abbreviation: "%"
  measured: 28.3
- molecule: "O=C1C2(CCC13COC(c1ccc(O)cc1)OC3)COC(c1ccc(O)cc1)OC2 (stereo not drawn)"
  unit-abbreviation: "%"
  measured: -2.43
- molecule: "CC(C)CCNC(=O)c1csc2c1CCCCC2"
  unit-abbreviation: "%"
  measured: 2.04
- molecule: "O=C(NCCCN1CCOCC1)c1csc2c1CCCC2"
  unit-abbreviation: "%"
  measured: -7.57
- molecule: "CS(=O)(=O)Nc1ccc(C2=NN(S(=O)(=O)c3ccccc3)C(c3cccs3)C2)cc1 (stereo not drawn)"
  unit-abbreviation: "%"
  measured: -70.3
- molecule: "CCN1CCCC1CNC(=O)c1csc2c1CCCC2 (stereo not drawn)"
  unit-abbreviation: "%"
  measured: -38.9
- molecule: "Cc1ccc(S(=O)(=O)N2CCOCC2)cc1NC(=O)Cn1ccsc1=N.Cl"
  unit-abbreviation: "%"
  measured: -5.64
- molecule: "CC(C)(C)C(=O)N1N=C(c2ccc(NS(C)(=O)=O)cc2)CC1c1cccs1 (stereo not drawn)"
  unit-abbreviation: "%"
  measured: -18.6
- molecule: "O=C1NC(c2ccc(-c3ccccc3[N+](=O)[O-])o2)C(C(=O)c2ccc(Cl)cc2)C(O)(C(F)(F)F)N1 (stereo not drawn)"
  unit-abbreviation: "%"
  measured: 2.13
- molecule: "CC1CC(C)CN(CCCNC(=O)c2csc3c2CCCC3)C1 (stereo not drawn)"
  unit-abbreviation: "%"
  measured: -65
- molecule: "COc1cccc(CN(C(=O)COc2ccccc2[N+](=O)[O-])C2CCS(=O)(=O)C2)c1 (stereo not drawn)"
  unit-abbreviation: "%"
  measured: -42
- molecule: "Cc1noc(C)c1COc1cccc(C(=O)OC(C)C(=O)Nc2c(C)n(C)n(-c3ccccc3)c2=O)c1 (stereo not drawn)"
  unit-abbreviation: "%"
  measured: 4.8
- molecule: "Cl.N=c1sccn1CC(=O)Nc1ccc(Cl)c(S(=O)(=O)N2CCOCC2)c1"
  unit-abbreviation: "%"
  measured: -50.4
- molecule: "COC(=O)Cc1csc(Nc2ccc(Cl)cc2)n1"
  unit-abbreviation: "%"
  measured: 7.01
- molecule: "COc1ccc(S(=O)(=O)Cc2ccc(C(=O)NCCc3cc(OC)ccc3OC)o2)cc1"
  unit-abbreviation: "%"
  measured: -39.6
- molecule: "COCCCNC(=O)Cn1ncc2ccsc2c1=O"
  unit-abbreviation: "%"
  measured: 13.6
- molecule: "Cc1ccc(C(=O)N2N=C(c3ccc(NS(C)(=O)=O)cc3)CC2c2cccs2)cc1 (stereo not drawn)"
  unit-abbreviation: "%"
  measured: -23.1
- molecule: "CCN(C(=O)COc1ccccc1[N+](=O)[O-])C1CCS(=O)(=O)C1 (stereo not drawn)"
  unit-abbreviation: "%"
  measured: 0.104
- molecule: "O=C(Cc1ccc(-c2ccccc2)cc1)NCCN1CCOCC1"
  unit-abbreviation: "%"
  measured: 0.566
- molecule: "CCC1CCCCN1CCCNC(=O)c1csc2c1CCCCC2 (stereo not drawn)"
  unit-abbreviation: "%"
  measured: -56.7
- molecule: "COc1cc(OC)cc(C(=O)NC(C(=O)Nc2ccc3c(c2)OCCO3)C(C)C)c1 (stereo not drawn)"
  unit-abbreviation: "%"
  measured: -11
- molecule: "CCOC(=O)C1CCCN(C(=S)Nc2ccc(OC)cc2)C1 (stereo not drawn)"
  unit-abbreviation: "%"
  measured: 5.25
- molecule: "CS(=O)(=O)Nc1ccc(C2=NN(C(=O)c3ccccc3)C(c3cccs3)C2)cc1 (stereo not drawn)"
  unit-abbreviation: "%"
  measured: -59.6
- molecule: "CC1CCCC(C)N1CCCNC(=O)c1csc2c1CCCCC2 (stereo not drawn)"
  unit-abbreviation: "%"
  measured: -49.3
- molecule: "CCN1CCN(CCCNC(=O)c2csc3c2CCCCC3)CC1"
  unit-abbreviation: "%"
  measured: -7.21
- molecule: "Cc1ccc(C(=O)N(Cc2sccc2C)C2CCS(=O)(=O)C2)cc1 (stereo not drawn)"
  unit-abbreviation: "%"
  measured: -28.2
- molecule: "Cc1ccc(OCC(=O)N(Cc2cccs2)C2CCS(=O)(=O)C2)cc1C (stereo not drawn)"
  unit-abbreviation: "%"
  measured: 4.21
- molecule: "Cc1cc(S(=O)(=O)N2CCCC2)ccc1OCC(=O)NCc1ccccc1"
  unit-abbreviation: "%"
  measured: -11.8
- molecule: "CCN1C=C(Cc2cccs2)C2=C(C1)C(c1cccs1)C(C#N)=C(N)O2 (stereo not drawn)"
  unit-abbreviation: "%"
  measured: -16.8
- molecule: "CCOc1cc(/C=C2\\NC(=S)N(C)C2=O)ccc1OCc1ccc(C(=O)O)cc1"
  unit-abbreviation: "%"
  measured: 14.6
- molecule: "Cn1c(CC(=O)Nc2ccccc2F)nnc1SCC(=O)NC1CCCC1"
  unit-abbreviation: "%"
  measured: 11
- molecule: "O=C(COc1ccc([N+](=O)[O-])cc1)N(Cc1cccs1)C1CCS(=O)(=O)C1 (stereo not drawn)"
  unit-abbreviation: "%"
  measured: -52.3
- molecule: "CS(=O)(=O)Nc1cccc(C2=NN(S(=O)(=O)c3ccccc3)C(c3cccs3)C2)c1 (stereo not drawn)"
  unit-abbreviation: "%"
  measured: -1.94
- molecule: "CC[C@@]1(O)C(=O)OCc2c1cc1n(c2=O)Cc2cc3c(CN(C)C)c(O)ccc3nc2-1.Cl"
  unit-abbreviation: "%"
  measured: 13.6
- molecule: "Cc1ccc(NC(=O)c2ccc3nc(N4CCOCC4)sc3c2)c(Cl)c1"
  unit-abbreviation: "%"
  measured: 6.14
- molecule: "CN1CCc2cc3c(cc2[C@H]1[C@@H]1OC(=O)c2c1ccc1c2OCO1)OCO3"
  unit-abbreviation: "%"
  measured: 7.02

====

The reader will find reported hERG current change (%, negative = inhibition) at 10uM values listed item by item below.
target: human ether-à-go-go-related gene (hERG) potassium channel (human, UniProt Q12809); assay: primary screen, population patch clamp on CHO cells stably expressing hERG; higher = less effect of the substance;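 further: peak tail current of the secondary pulse compared with the same well before compound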
Sequence (Q12809 whole entry, looked up): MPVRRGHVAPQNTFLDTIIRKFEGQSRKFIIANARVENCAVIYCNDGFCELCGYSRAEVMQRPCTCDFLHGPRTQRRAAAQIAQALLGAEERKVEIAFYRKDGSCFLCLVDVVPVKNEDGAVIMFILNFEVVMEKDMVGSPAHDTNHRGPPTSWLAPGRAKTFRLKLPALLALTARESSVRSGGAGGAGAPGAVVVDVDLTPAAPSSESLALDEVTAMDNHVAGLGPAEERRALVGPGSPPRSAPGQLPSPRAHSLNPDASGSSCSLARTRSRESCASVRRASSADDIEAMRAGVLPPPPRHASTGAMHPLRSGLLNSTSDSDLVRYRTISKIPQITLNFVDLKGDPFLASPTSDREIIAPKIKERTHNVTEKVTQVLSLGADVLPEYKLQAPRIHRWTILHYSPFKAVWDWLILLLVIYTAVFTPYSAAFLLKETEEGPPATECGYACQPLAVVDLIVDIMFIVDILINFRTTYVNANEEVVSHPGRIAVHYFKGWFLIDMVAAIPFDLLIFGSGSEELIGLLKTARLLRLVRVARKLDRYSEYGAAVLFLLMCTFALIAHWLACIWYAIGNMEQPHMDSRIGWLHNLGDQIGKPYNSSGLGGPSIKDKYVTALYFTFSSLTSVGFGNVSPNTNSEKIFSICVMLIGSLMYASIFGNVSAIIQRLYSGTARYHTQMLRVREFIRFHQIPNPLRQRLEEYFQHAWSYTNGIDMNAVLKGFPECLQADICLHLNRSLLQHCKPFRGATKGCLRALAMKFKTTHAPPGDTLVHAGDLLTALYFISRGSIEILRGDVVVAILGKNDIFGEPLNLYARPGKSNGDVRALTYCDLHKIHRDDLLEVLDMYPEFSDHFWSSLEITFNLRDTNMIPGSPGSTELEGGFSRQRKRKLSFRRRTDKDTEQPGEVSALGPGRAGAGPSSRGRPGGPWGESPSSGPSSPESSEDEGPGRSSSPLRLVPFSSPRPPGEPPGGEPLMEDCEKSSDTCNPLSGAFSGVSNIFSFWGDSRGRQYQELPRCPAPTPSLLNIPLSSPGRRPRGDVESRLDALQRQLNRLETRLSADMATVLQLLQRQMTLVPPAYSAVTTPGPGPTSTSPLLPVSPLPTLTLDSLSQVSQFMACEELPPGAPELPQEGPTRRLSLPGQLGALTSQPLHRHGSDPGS
Hit rate of the full screen: of about 310,000 compounds, about 14,000 (4.5%) showed an effect of 50% or more. The effect is printed as a negative number. What follows is part of a selection rich in strong results, with near analogues and random picks from the rest.
measurement-type: hERG current change (%, negative = inhibition) at 10uM (%)

- compound: "COc1ccc(N2C3=[N+](CC2(C)O)c2ccccc2CC3)cc1.[Br-] (centres unmarked)"
  unit-abbreviation: "%"
  measured: -44.3
- compound: "CCn1cc(C(=O)NCc2ccco2)c(=O)c2cc(S(=O)(=O)N3CC(C)CC(C)C3)ccc21 (centres unmarked)"
  unit-abbreviation: "%"
  measured: -7.3
- compound: "O=C(CN1CCOCC1)Nc1ccc(Cl)cc1"
  unit-abbreviation: "%"
  measured: -1.12
- compound: "Cc1cccc(C)c1NC(=O)c1cc2c(=O)c3ccccc3oc2nc1C(F)(F)F"
  unit-abbreviation: "%"
  measured: -3.38
- compound: "COC(=O)c1ccc(NC(=O)CN2CCN(c3ccc(Cl)cc3)CC2)cc1"
  unit-abbreviation: "%"
  measured: 11.9
- compound: "N#CCc1c(C#N)c(N)nc(N2CCN(c3ccc(F)cc3)CC2)c1C#N"
  unit-abbreviation: "%"
  measured: -63.9
- compound: "Cc1ccc(C(=O)N/C(=C\\c2ccc(-c3ccc([N+](=O)[O-])cc3)o2)C(=O)NC2CCS(=O)(=O)C2)cc1 (centres unmarked)"
  unit-abbreviation: "%"
  measured: -28.2
- compound: "COc1ccccc1CNC(=O)C1=C(C)C(=O)OC12CCC(C)CC2 (centres unmarked)"
  unit-abbreviation: "%"
  measured: -2.21
- compound: "O=C(CN1CCOCC1)Nc1ccc(F)cc1"
  unit-abbreviation: "%"
  measured: 2.97
- compound: "COc1ccc(-n2c(-c3ccc(Cl)cc3)c[n+]3c2CCc2ccccc2-3)cc1.[Br-]"
  unit-abbreviation: "%"
  measured: -78.4
- compound: "Cc1ccc(-n2c(-c3ccc(Br)cc3)c[n+]3c2CCc2ccc4cccnc4c2-3)cc1.[Br-]"
  unit-abbreviation: "%"
  measured: -74.2
- compound: "Cc1ccc(-n2c(=O)[nH]c3ncccc3c2=O)cc1"
  unit-abbreviation: "%"
  measured: 30.2
- compound: "CCOC(=O)c1cnc(SCc2nc(N)nc(Nc3ccccc3OC)n2)nc1N"
  unit-abbreviation: "%"
  measured: -2.39
- compound: "O=C(CN1CCN(c2ccccc2)CC1)Nc1ccc(F)cc1"
  unit-abbreviation: "%"
  measured: -39.7
- compound: "NC(=O)c1ccc(NC(=O)CN2CCN(c3ccc(Cl)cc3)CC2)cc1"
  unit-abbreviation: "%"
  measured: -51.3
- compound: "COc1ccc(-n2c(-c3ccc(Br)cc3)nc(=S)c3c2CCCC3)cc1"
  unit-abbreviation: "%"
  measured: -1.32
- compound: "CCN(CC)S(=O)(=O)c1ccc(NC(=O)Cc2cccs2)cc1"
  unit-abbreviation: "%"
  measured: 5.81
- compound: "CCCCC(=O)N/N=C/c1ccc(-c2ccc([N+](=O)[O-])cc2)o1"
  unit-abbreviation: "%"
  measured: -21.9
- compound: "CCOc1cc(C(=S)N2CCCCC2)ccc1OS(=O)(=O)c1ccc(Cl)cc1"
  unit-abbreviation: "%"
  measured: -1.37
- compound: "O=C(CN1CCN(CC(=O)Nc2ccc(-c3ccccc3)cc2)CC1)Nc1ccc(F)cc1"
  unit-abbreviation: "%"
  measured: -66.2
